system.tested: serotonin 5HT6 receptor subtype (Homo sapiens)
Construct: host or cells: CHO-Dukx-A2 cells, clone 50-7
Sequence (P50406 whole entry): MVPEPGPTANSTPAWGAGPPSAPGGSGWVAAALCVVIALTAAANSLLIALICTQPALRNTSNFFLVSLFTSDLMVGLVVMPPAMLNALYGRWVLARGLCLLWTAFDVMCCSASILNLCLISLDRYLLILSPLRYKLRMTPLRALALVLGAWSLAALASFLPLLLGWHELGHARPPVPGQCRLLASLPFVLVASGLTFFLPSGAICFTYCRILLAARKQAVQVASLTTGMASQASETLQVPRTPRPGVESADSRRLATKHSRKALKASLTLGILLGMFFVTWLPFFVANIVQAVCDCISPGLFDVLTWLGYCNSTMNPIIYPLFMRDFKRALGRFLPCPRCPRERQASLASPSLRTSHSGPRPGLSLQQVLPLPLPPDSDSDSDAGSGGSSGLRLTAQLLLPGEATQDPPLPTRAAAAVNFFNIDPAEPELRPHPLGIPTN
assay.info: 5HT6 Binding Affinity ([3H]-LSD SPA binding)
Counter-ions that a name gives are not always drawn.
measurement.type: Ki (nM)

[
  {
    "compound": "O=S(=O)(c1cccc2ccccc12)c1n[nH]c2ccc(N3CCNCC3)cc12 [Compound C, dihydrochloride, reference compound]",
    "measurement.type": "Ki",
    "units.text": "nM",
    "obs.value": 0.8
  }
]

* * *

assay.info: CNS penetration following a single intraperitoneal dose
Format: in vivo, Male Long Evans Rats
conditions: male, Long Evans, rat, brain and plasma, intraperitoneal, 10 mg/mL; Table 1; obtained according to Example 10; read-out: Brain/plasma ratio
Counter-ions that a name gives are not always drawn.
Rule for this label: Criterion met means Kp is less than 0.3; Criterion not met means Kp is at least 0.3.

[
  {
    "molecule": "CCn1nc(S(=O)(=O)c2cccc3ccccc23)c2cc(N3CCNCC3)ccc21 [Example 6, dihydrochloride]",
    "discrete.label": "Criterion not met"
  },
  {
    "molecule": "O=S(=O)(c1cccc2ccccc12)c1nn(Cc2ccccc2)c2ccc(N3CCNCC3)cc12 [Example 2, dihydrochloride]",
    "discrete.label": "Criterion met"
  },
  {
    "molecule": "CC(C)n1nc(S(=O)(=O)c2cccc3ccccc23)c2cc(N3CCNCC3)ccc21 [Example 8, dihydrochloride]",
    "discrete.label": "Criterion not met"
  },
  {
    "molecule": "O=S(=O)(c1cccc2ccccc12)c1n[nH]c2ccc(N3CCNCC3)cc12 [Compound C, dihydrochloride, reference compound]",
    "discrete.label": "Criterion met"
  },
  {
    "molecule": "CC(C)Cn1nc(S(=O)(=O)c2cccc3ccccc23)c2cc(N3CCNCC3)ccc21 [Example 1, dihydrochloride]",
    "discrete.label": "Criterion not met"
  }
]
